# Assay Explanation: Primary qHTS for small molecule stabilizers of the endoplasmic reticulum resident proteome: Secreted ER Calcium Modulated Protein (SERCaMP) assay (AID 1508630); note: % is set by controls: 0 for no effect and ±100 for the full control effect
# Conditions Used: SH-SY5Y GLuc-SERCaMP (Gaussia luciferase released on ER calcium loss) secretion, thapsigargin, luminescence; series mostly up to 38.4 µM
Records with an inconclusive call do not appear. Active and inactive are the calls of the source. Calls come from the whole dose curve; as a rule, active = well fitted inhibition curve with a large enough effect; inconclusive = small, poorly fitted or top-dose-only effect; inactive = no such curve, though single readings can be large or run the other way.
Observed Property: outcome

                         chemical_structure  observed_property  recorded_result
0  COC(=O)N1CCC[C@@]2(CCN(C(=O)Nc3ccc(OC)cc3)C2)C1            outcome         inactive
1  COc1ccc(NC(=O)N2CCCC3(CCN(C(=O)c4ccco4)CC3)C2)cc1            outcome         inactive
2  O=C(c1ccncc1)N1CCC[C@@]2(CCN(c3ccncc3)C2)C1            outcome         inactive
3   Cc1cnc(CNc2cc(-c3ccc(N(C)C)cc3)ncn2)cn1            outcome         inactive

According to the records, this molecule O=c1c(-c2ccc(F)cc2)nc2cnc(Oc3cccc(Cl)c3)nc2n1C[C@H]1CCCO1 displays outcome of inactive

---

# Assay Explanation: qHTS Assay for Lipid Storage Modulators (AID 1519); for activity change, negative = inhibition: % is set by controls: 0 for no effect and ±100 for the full control effect
# Conditions Used: Drosophila S3 cells, BODIPY lipid droplet/cell ratio, laser cytometry; at 57.5 µM (top of the series); cells loaded with oleic acid
Inconclusive results are not listed.
Please provide measured activity change, negative = inhibition for the entries that follow.
Quick note: give the figure in %, leave out the unit.

According to the records, this molecule O=C(c1ccco1)N1CCC[C@@]2(CCN(c3ccccn3)C2)C1 displays activity change, negative = inhibition of 4.34

According to the records, this molecule Cc1cnc(CNc2ncnc3ccc(-c4ccccc4C(F)(F)F)cc23)cn1 displays activity change, negative = inhibition of 0.934

According to the records, this molecule N#Cc1ccc(CN2CC3(CCN(C(=O)c4cnccn4)CC3)C2)cc1 displays activity change, negative = inhibition of 3.16

According to the records, this molecule O=C(Nc1ccccc1)N1CC[C@@]2(CCCN(C(=O)c3cc(C(F)(F)F)cc(C(F)(F)F)c3)C2)C1 displays activity change, negative = inhibition of 4.15

According to the records, this molecule CC(=O)NCCNc1nc(-c2ccc(N(C)C)cc2)nc2ccccc12 displays activity change, negative = inhibition of 9.02

According to the records, this molecule Cn1cccc1C(=O)N1CCC2(CC1)CN(Cc1ccc(C#N)cc1)C2 displays activity change, negative = inhibition of 4.17

According to the records, this molecule O=C(c1ccncc1)N1CCC2(CC1)CCN(c1ccncc1)CC2 displays activity change, negative = inhibition of 1.78

According to the records, this molecule O=C(c1ccncc1)N1CCC2(CCCN(c3ccccc3)C2)CC1 displays activity change, negative = inhibition of 6.76

According to the records, this molecule O=C(c1cccc(F)c1)N1CCC2(CCN(Cc3ccncc3)CC2)CC1 displays activity change, negative = inhibition of 2.27

According to the records, this molecule Clc1ccccc1-c1ccc2ncnc(NC3CCNCC3)c2c1 displays activity change, negative = inhibition of 1.65

According to the records, this molecule FC(F)(F)c1ccccc1-c1ccc2ncnc(NCc3cccs3)c2c1 displays activity change, negative = inhibition of -3.1

---

# Assay Explanation: qHTS Assay for Lipid Storage Modulators (AID 1519)
# Conditions Used: Drosophila S3 cells, BODIPY lipid droplet/cell ratio, laser cytometry; measured here: lipid channel max response; cells loaded with oleic acid
Records with an inconclusive call do not appear.
Please provide measured max response for the entries that follow.
Quick note: give the figure in %, leave out the unit.

According to the records, this compound C=C(NC(=O)C(=C)NC(=O)c1csc(C2=NC3c4csc(n4)C4NC(=O)c5csc(n5)C(C(C)(O)C(C)O)NC(=O)C5CSC(=N5)C(=CC)NC(=O)C(C(C)O)NC(=O)c5csc(n5)C3(CC2)NC(=O)C(C)NC(=O)C(=C)NC(=O)C(C)NC(=O)C(C(C)CC)NC2C=Cc3c(C(C)O)cc(nc3C2O)C(=O)OC4C)n1)C(N)=O (stereo not given) displays max response of 5.44

According to the records, this compound C=CCc1ccccc1OC[C@H](O)CNC(C)C displays max response of -3.45

According to the records, this compound Cn1cccc1C(=O)N1CCC2(CCCN(Cc3ccncc3)C2)CC1 displays max response of 14.6

According to the records, this compound COc1ccc(C(=O)N2CCC[C@@]3(CCN(Cc4ccncc4)C3)C2)cc1 displays max response of 25.6

According to the records, this compound COc1ccc(NC(=O)N2CCCC3(CCN(C(=O)c4cc(C(F)(F)F)cc(C(F)(F)F)c4)CC3)C2)cc1 displays max response of 18.5

According to the records, this compound FC(F)(F)c1cc(CN2CC[C@@]3(CCCNC3)C2)cc(C(F)(F)F)c1 displays max response of 10.6

According to the records, this compound CC(=O)Oc1ccc2c(c1C(C)C)CCC1C(C)(C)CCC[C@@]21C (stereo not given in full) displays max response of 20.3

According to the records, this compound CN(C)C(=O)c1ccc(-c2ccc3ncnc(NCc4cccs4)c3c2)cc1 displays max response of 12.3

According to the records, this compound CC(=O)N1CCC2(CC1)CN(C(=O)Nc1cccc(C#N)c1)C2 displays max response of 1.82

According to the records, this compound CN(C)Cc1ccccc1-c1ccc2ncnc(NCc3cccs3)c2c1 displays max response of 6.51

According to the records, this compound CCC(=O)OC1CCC2C3CCc4cc(O)ccc4C3CC[C@]12C (stereo not given in full) displays max response of 15.5

According to the records, this compound N#Cc1ccc(CN2CCCC3(CCN(C(=O)c4ccncc4)CC3)C2)cc1 displays max response of 7.34

According to the records, this compound CCN(CC)CC#CCOC(=O)[C@@](O)(c1ccccc1)C1CCCCC1 displays max response of -11.7

According to the records, this compound COc1ccccc1CNc1ncnc2ccc(-c3c(C)noc3C)cc12 displays max response of -7.6

According to the records, this compound COc1cccc(Nc2ncc3nc(C)c(=O)n(C[C@H]4CCCO4)c3n2)c1 displays max response of -7.75

According to the records, this compound O=C(c1ccco1)N1CCC[C@@]2(CCN(C(c3ccccc3)c3ccccc3)C2)C1 displays max response of -26.4

According to the records, this compound Cc1occc(=O)c1O displays max response of 13.2

According to the records, this compound O=c1c(-c2ccccc2)coc2cc(O)cc(O)c12 displays max response of 7.42

According to the records, this compound COc1ccccc1CNc1ccnc(-c2ccccc2C(F)(F)F)n1 displays max response of 2.88

According to the records, this compound COc1ccccc1CN1CCCC2(CCN(C(=O)c3ccncc3)CC2)C1 displays max response of 9.4

---

# Assay Explanation: AP1 Signaling Pathway (AID 357);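 note: ME-180 reporter cells stimulated with EGF at its EC50 level; % is set by controls: 0 for no effect and ±100 for the full control effect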
# Conditions Used: ME-180 (cervical carcinoma) AP-1-bla reporter, EGF-induced, beta-lactamase ratio, 5 h; at 7.69 µM (top of the series) unless noted
Records with an inconclusive call do not appear. The source made the active and inactive calls. Calls come from the whole dose curve; as a rule, active = well fitted curve in either direction with a large enough effect (not every such curve was filed as active); inconclusive = small, poorly fitted or top-dose-only effect, or another doubt; inactive = flat fitted curve, though single readings scatter.
Please provide measured activity change, negative = inhibition for the entries that follow.

According to the records, this molecule CN(C)Cc1ccccc1-c1nccc(N(C)Cc2ccco2)n1 displays activity change, negative = inhibition of -20% (inactive)

According to the records, this molecule COc1ccccc1-c1nccc(NCc2cccc(C)c2)n1 displays activity change, negative = inhibition of -2.08% (inactive)

According to the records, this molecule COc1ccc(-c2nc3cnc(N4CCOCC4)nc3n(Cc3cccc(OC)c3)c2=O)cc1 displays activity change, negative = inhibition of 18.4% (inactive)

According to the records, this molecule O=S(=O)(c1ccccc1)N1CCC2(CCN(c3cccc(-c4ccccc4)c3)CC2)CC1 displays activity change, negative = inhibition of -5.65% (inactive)

According to the records, this molecule COc1ccc(CNc2cc(-c3ccccc3OC)ncn2)c(OC)c1 displays activity change, negative = inhibition of -6.46% (inactive)

According to the records, this molecule COc1cccc(-c2nc(NCCNC(C)=O)c3ccccc3n2)c1 displays activity change, negative = inhibition of -4.33% (inactive)

---

# Target Of Assay: Cytochrome P450 2D6 (Homo sapiens) (UniProt P10635)
# Sequence (P10635 whole entry, looked up): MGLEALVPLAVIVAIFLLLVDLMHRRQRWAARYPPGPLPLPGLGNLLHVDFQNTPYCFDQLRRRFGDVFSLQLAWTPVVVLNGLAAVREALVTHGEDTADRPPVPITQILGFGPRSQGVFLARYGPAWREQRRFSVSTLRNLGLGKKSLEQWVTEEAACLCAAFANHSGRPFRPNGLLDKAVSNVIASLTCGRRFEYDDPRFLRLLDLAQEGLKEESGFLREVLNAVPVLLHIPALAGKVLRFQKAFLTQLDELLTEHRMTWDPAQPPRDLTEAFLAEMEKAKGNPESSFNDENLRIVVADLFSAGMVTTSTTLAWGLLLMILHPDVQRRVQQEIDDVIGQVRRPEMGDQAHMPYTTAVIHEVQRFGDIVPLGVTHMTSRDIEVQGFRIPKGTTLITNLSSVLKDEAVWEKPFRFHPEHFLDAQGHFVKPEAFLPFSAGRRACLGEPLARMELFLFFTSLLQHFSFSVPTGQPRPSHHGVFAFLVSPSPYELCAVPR
# Assay Explanation: qHTS Assay for Inhibitors and Substrates of Cytochrome P450 2D6 (AID 891); note: nearly all actives have a fitted effect of over 60% in size
# Conditions Used: recombinant CYP2D6, luciferin-ME EGE luminescence; series mostly up to 57.1 µM
Records with an inconclusive call do not appear. Calls of active or inactive are those of the source. Calls come from the whole dose curve; as a rule, active = well fitted inhibition curve with a large enough effect; inconclusive = small, poorly fitted or top-dose-only effect; inactive = no such curve, though single readings can be large or run the other way.
Give one outcome, nothing more. List: Yes (active), No (inactive)

Recorded test outcome, item O=S(=O)(c1ccccc1)N1CCC2(CC1)CN(Cc1ccccc1)C2
Yes

Recorded test outcome, item Cn1cccc1C(=O)N1CCC2(CCCN(c3ncccn3)C2)CC1
No

Recorded test outcome, item COc1ccccc1CN1CCCC2(CCN(C(C)=O)CC2)C1
Yes

Recorded test outcome, item C[C@@]12CC[C@@H]3c4ccc(O)cc4CC[C@H]3[C@H]1CC[C@H]2O
No

Recorded test outcome, item c1nc(NCCN2CCOCC2)c2cc(-c3ccoc3)ccc2n1
Yes

Recorded test outcome, item C[C@@]12CCC(=O)C=C1CC[C@H]1[C@H]3CC[C@](O)(C(=O)CO)[C@]3(C)CC(=O)[C@@H]12
No

Recorded test outcome, item COc1cccc(-c2cncnc2NCCc2cnc[nH]2)c1
Yes

Recorded test outcome, item c1csc(CNc2ccnc(-c3ccc4c(c3)OCO4)n2)c1
Yes

Recorded test outcome, item CN(C)Cc1ccccc1-c1ccc2ncnc(NCc3ccccc3)c2c1
Yes

Recorded test outcome, item O=C(c1cccc(F)c1)N1CCC2(CCN(Cc3ccccc3)CC2)CC1
Yes

Recorded test outcome, item CCNc1ncc2nc(-c3cccc(C#N)c3)c(=O)n(CCC#N)c2n1
Yes

Recorded test outcome, item COc1ccc(CNc2ncncc2-c2cccc(C#N)c2)c(OC)c1
Yes

Recorded test outcome, item C[C@@H](COc1ccccc1)N(CCCl)Cc1ccccc1
Yes

Recorded test outcome, item C[C@@](N)(Cc1ccc(O)c(O)c1)C(=O)O
No

Recorded test outcome, item COc1cccc(-c2nc(N(C)Cc3ccco3)c3ccccc3n2)c1
Yes

Data provenance is PubChem BioAssay (NCATS).
